# Tested on: OVCAR-8
# protocol_notes: NCI tumour cell line growth inhibition, 48 h
Activity calls are given as the source filed them. Rule as the data show it: active = GI50 up to about 1.1 µM and inactive = higher.
The reply should name one outcome from 1 (active), 0 (inactive)

Request: Check the results log: what was the call for CCN(CC)CC(=O)NC1c2ccccc2Oc2ccccc21 ?
Response: 0

Request: How did this test come out for Cc1ccc(C(=O)CC2=Nc3nnc(CCCCCCCc4nnc5n4C(=O)C(CC(=O)c4ccc(C)cc4)=N5)n3C2=O)cc1 ?
Response: 0

Request: Status in this test for CC1(C)[C@@H]2C[C@H]1c1cnc(-c3ccccn3)cc1C2[C@@H]1c2cc(-c3ccccn3)ncc2[C@@H]2C[C@H]1C2(C)C (stereo not given in full) ?
Response: 0

Request: // outcome(item) with item = O=[N+]([O-])c1cccc(-c2oc(/C=N/c3ccccc3)c([N+](=O)[O-])c2-c2cccc([N+](=O)[O-])c2)c1
Response: 0

Request: Outcome? COC(=O)c1ccccc1CC1Cc2cc3c(cc2C1=O)CCC3 (stereo not given)
Response: 0

Request: GET /call?item= Cc1nc2ccc(NCCN(C)C)c3c(=O)c4ccccc4n1c23 returns the recorded outcome of this test.
Response: 1

Request: Tell me the recorded outcome of this test for COc1cccc2c1-c1ccccc1[C@H](Nc1ccccc1)[C@@]2(C)O .
Response: 0

Request: Please share the test call associated with CCOc1ccccc1NC(=O)CCC(=O)NN .
Response: 0

Request: Could you check what this test reported for CC1(n2nc(-c3ccccc3)n(-c3ccccc3)c2=O)CSC1 ?
Response: 0

Request: Would you mind telling me which call this test gave Cc1cc(O)nc(NNC(C#N)c2cccc(O)c2)n1 (stereo not given) ?
Response: 0
